Hey, just so you know, these numbers are from the supplement of paper PMC9262897.

- Tested on: E. coli TESEC Mtb Asd
- EXPERIMENT DESCRIPTION: growth (OD600 after 10 h); higher = more growth (less inhibition)
- TEST CONTEXT: arabinose induction (level): High; compound 0.1 mM; raw OD600 reference: median of DMSO wells 0.331, cell-free background 0.041
Structures can show the parent of a compound that is named as a salt.

COMPOUND: Cc1cccn2c(=O)c(-c3nnn[nH]3)cnc12
ASSAY SYSTEM: E. coli TESEC Mtb Asd
growth: 0.284
//
COMPOUND: Clc1ccc(COC(Cn2ccnc2)c2ccc(Cl)cc2Cl)c(Cl)c1 (stereo unspecified)
ASSAY SYSTEM: E. coli TESEC Mtb Asd
growth: 0.0471
//
COMPOUND: CO/N=C(\C(=O)N[C@@H]1C(=O)N2C(C(=O)O)=C(C[N+]3(C)CCCC3)CS[C@H]12)c1csc(N)n1 [Cefepime hydrochloride]
ASSAY SYSTEM: E. coli TESEC Mtb Asd
growth: 0.197
//
COMPOUND: Cc1ccc(-c2ncc(Cl)cc2-c2ccc(S(C)(=O)=O)cc2)cn1
ASSAY SYSTEM: E. coli TESEC Mtb Asd
growth: 0.266
//
COMPOUND: c1ccc2c(CC3=NCCN3)cccc2c1 [Naphazoline hydrochloride]
ASSAY SYSTEM: E. coli TESEC Mtb Asd
growth: 0.238
//
COMPOUND: CN(C)CCC=C1c2ccccc2C=Cc2ccccc21 [Cyclobenzaprine hydrochloride]
ASSAY SYSTEM: E. coli TESEC Mtb Asd
growth: 0.161
//
COMPOUND: O=C(NC(Cc1cc(=O)[nH]c2ccccc12)C(=O)O)c1ccc(Cl)cc1 (stereo unspecified) [Rebamipide]
ASSAY SYSTEM: E. coli TESEC Mtb Asd
growth: 0.312
//
COMPOUND: Cc1cc(-c2ccccc2)nnc1NCCN1CCOCC1 [Minaprine dihydrochloride]
ASSAY SYSTEM: E. coli TESEC Mtb Asd
growth: 0.212
//
COMPOUND: CCN1CCC[C@H]1CNC(=O)c1c(OC)ccc(Br)c1OC [Remoxipride Hydrochloride]
ASSAY SYSTEM: E. coli TESEC Mtb Asd
growth: 0.288
//
COMPOUND: CCCN(CCC)C(=O)C(CCC(=O)O)NC(=O)c1ccccc1 (stereo unspecified) [Proglumide]
ASSAY SYSTEM: E. coli TESEC Mtb Asd
growth: 0.318
//
COMPOUND: Nc1c2ccccc2nc2ccccc12
ASSAY SYSTEM: E. coli TESEC Mtb Asd
growth: 0.0581
//
COMPOUND: Cc1cc(C2CCCCC2)n(O)c(=O)c1
ASSAY SYSTEM: E. coli TESEC Mtb Asd
growth: 0.0544
//
COMPOUND: Cc1nc2n(c(=O)c1CCN1CCC(c3noc4cc(F)ccc34)CC1)CCCC2
ASSAY SYSTEM: E. coli TESEC Mtb Asd
growth: 0.183
//
COMPOUND: CNS(=O)(=O)Cc1ccc2[nH]cc(CCN(C)C)c2c1 [Sumatriptan succinate]
ASSAY SYSTEM: E. coli TESEC Mtb Asd
growth: 0.372
//
COMPOUND: CC(NCCC(c1ccccc1)c1ccccc1)c1ccccc1 (stereo unspecified) [Fendiline hydrochloride]
ASSAY SYSTEM: E. coli TESEC Mtb Asd
growth: 0.0469
//
COMPOUND: O=C(O)c1ccccc1OP(=O)(O)O
ASSAY SYSTEM: E. coli TESEC Mtb Asd
growth: 0.349
//
COMPOUND: CC(C)N1CCN(c2ccc(OCC3COC(Cn4cncn4)(c4ccc(Cl)cc4Cl)O3)cc2)CC1 (stereo unspecified)
ASSAY SYSTEM: E. coli TESEC Mtb Asd
growth: 0.252
//
COMPOUND: C#C[C@]1(O)CC[C@H]2[C@@H]3CCC4=CCCC[C@@H]4[C@H]3CC[C@@]21C
ASSAY SYSTEM: E. coli TESEC Mtb Asd
growth: 0.312
//
COMPOUND: Clc1cc(Cl)c(OCC#CI)cc1Cl
ASSAY SYSTEM: E. coli TESEC Mtb Asd
growth: 0.242
//
COMPOUND: CC(CCc1ccc(O)cc1)NCCc1ccc(O)c(O)c1 (stereo unspecified) [Dobutamine hydrochloride]
ASSAY SYSTEM: E. coli TESEC Mtb Asd
growth: 0.176
//
COMPOUND: CC(c1cc2ccccc2s1)N(O)C(N)=O (stereo unspecified)
ASSAY SYSTEM: E. coli TESEC Mtb Asd
growth: 0.338
//
COMPOUND: O=C1c2ccccc2S(=O)(=O)N1CCCCN1CCN(c2ncccn2)CC1
ASSAY SYSTEM: E. coli TESEC Mtb Asd
growth: 0.226
//
COMPOUND: Oc1ccc(OCc2ccccc2)cc1
ASSAY SYSTEM: E. coli TESEC Mtb Asd
growth: 0.314
//
COMPOUND: CCCc1cc(C(N)=S)ccn1 [Prothionamide]
ASSAY SYSTEM: E. coli TESEC Mtb Asd
growth: 0.231
//
COMPOUND: COc1ccc(-c2cc(=S)ss2)cc1
ASSAY SYSTEM: E. coli TESEC Mtb Asd
growth: 0.211
//
COMPOUND: CC(C)NCC(O)COc1ccc(CCOCC2CC2)cc1 (stereo unspecified) [Betaxolol hydrochloride]
ASSAY SYSTEM: E. coli TESEC Mtb Asd
growth: 0.264
//
COMPOUND: CN1CCC(OC(c2ccccc2)c2ccccc2)CC1 [Diphenylpyraline hydrochloride]
ASSAY SYSTEM: E. coli TESEC Mtb Asd
growth: 0.237
//
COMPOUND: CC(C)C(=O)c1c(C(C)C)nn2ccccc12
ASSAY SYSTEM: E. coli TESEC Mtb Asd
growth: 0.183
//
COMPOUND: CCC(C)(CN(C)C)OC(=O)c1ccccc1 (stereo unspecified) [Amyleine hydrochloride]
ASSAY SYSTEM: E. coli TESEC Mtb Asd
growth: 0.26
//
COMPOUND: CC(=O)O[C@@]12CO[C@@H]1C[C@H](O)[C@@]1(C)C(=O)[C@H](O)C3=C(C)[C@@H](OC(=O)[C@H](O)[C@@H](NC(=O)OC(C)(C)C)c4ccccc4)C[C@@](O)([C@@H](OC(=O)c4ccccc4)[C@H]21)C3(C)C
ASSAY SYSTEM: E. coli TESEC Mtb Asd
growth: 0.248
//
COMPOUND: CN(C(=O)C(Cl)Cl)c1ccc(OC(=O)c2ccco2)cc1 [Diloxanide furoate]
ASSAY SYSTEM: E. coli TESEC Mtb Asd
growth: 0.366
//
COMPOUND: CCOC(=O)c1ccc(N)cc1
ASSAY SYSTEM: E. coli TESEC Mtb Asd
growth: 0.469
//
COMPOUND: COc1ccc2c3c1O[C@H]1C[C@@H](O)C=C[C@@]31CCN(C)C2 [Galanthamine hydrobromide]
ASSAY SYSTEM: E. coli TESEC Mtb Asd
growth: 0.229
//
COMPOUND: Cn1c(=O)c2[nH]cnc2n(C)c1=O
ASSAY SYSTEM: E. coli TESEC Mtb Asd
growth: 0.287
//
COMPOUND: CCN[C@H]1C[C@H](C)S(=O)(=O)c2sc(S(N)(=O)=O)cc21 [Dorzolamide hydrochloride]
ASSAY SYSTEM: E. coli TESEC Mtb Asd
growth: 0.216
//
COMPOUND: CCC(C)(C)C(=O)O[C@H]1C[C@@H](C)C=C2C=C[C@H](C)[C@H](CC[C@@H]3C[C@@H](O)CC(=O)O3)[C@H]21
ASSAY SYSTEM: E. coli TESEC Mtb Asd
growth: 0.0906
